A collection of binders and their measured binding signal
Molecular target: T1, RBFOX1 RRM RbFoxmut (Fox-RRM*) (Homo sapiens, UniProt Q9NWB1 109-208, R118D;E147R;N151S;E152T)
T1 sequence: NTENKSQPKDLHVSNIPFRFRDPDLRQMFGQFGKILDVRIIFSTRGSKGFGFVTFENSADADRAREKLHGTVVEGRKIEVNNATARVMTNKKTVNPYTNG
Experiment: EMSA; HiTS-Eq, 1 nM pool, 10 min; buffer printed only for the single-RNA assays: 10 mM Tris pH 7.5, 150 mM NaCl, 3.4 mM EDTA, 0.001% NP-40, 30 C
Conditions: tags: His6 N-terminal (pET28a); label: 5' 32P
Whole data set: some 16,000 sequences, median “ka relative to ugcaugu” near 0.096, cut for the highest 2% near 0.35. This excerpt belongs to a sample that is enriched for the highest values.

// below: answered binders
GAACCGU (DNA:RNA) RNA: GGGAGACCGGAAUUCAGAUUGUCCGAACCGUUUAAAUCCCGUCGUAGCCACCA DNA 1: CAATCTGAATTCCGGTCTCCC DNA 2: TGGTGGCTACGACGGGATT | 0.126 KA relative to UGCAUGU
GAAUUGU (DNA:RNA) RNA: GGGAGACCGGAAUUCAGAUUGUCCGAAUUGUUUAAAUCCCGUCGUAGCCACCA DNA 1: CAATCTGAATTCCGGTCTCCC DNA 2: TGGTGGCTACGACGGGATT | 0.192 KA relative to UGCAUGU
CGAAUCG (DNA:RNA) RNA: GGGAGACCGGAAUUCAGAUUGUCCCGAAUCGUUAAAUCCCGUCGUAGCCACCA DNA 1: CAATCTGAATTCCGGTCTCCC DNA 2: TGGTGGCTACGACGGGATT | 0.374 KA relative to UGCAUGU

Please examine the following record next.
So for GAAUCGC (DNA:RNA) RNA: GGGAGACCGGAAUUCAGAUUGUCCGAAUCGCUUAAAUCCCGUCGUAGCCACCA DNA 1: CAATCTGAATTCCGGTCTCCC DNA 2: TGGTGGCTACGACGGGATT , the logged binding signal turned out to be 0.512 KA relative to UGCAUGU
